Attribution: the supplement of paper PMC11061612

- System: LC-1-sq (Squamous Cell Lung Carcinoma)
- Method description: combination Emax (second highest fraction inhibited in the dose matrix, 72 h); higher = more inhibition; extreme values may be limits of the assay
Reported property: combination Emax

Example entries and their recorded answers appear below.
Compound	combination Emax
Cc1cc2ncnn2cc1Nc1ncc2c(n1)n(C1CCOCC1)c(=O)n2C [AZD7648] + CCN(CCO)CCCOc1ccc2c(Nc3cc(CC(=O)Nc4cccc(F)c4)[nH]n3)ncnc2c1 [AZD2811] (first compound max 10 µM, 7x7, partner max 1 µM)	0.325
CC(=O)Nc1cccc(-n2c(=O)n(C3CC3)c(=O)c3c(Nc4ccc(I)cc4F)n(C)c(=O)c(C)c32)c1 [Trametinib] + Cc1nc(-c2cn3c(n2)-c2ccc(-c4cnn(C(C)(C)C(N)=O)c4)cc2OCC3)n(C(C)C)n1 [Taselisib] (first compound max 1 µM, 7x7, partner max 10 µM)	0.722
COc1nnc2ccc(N3CCC(c4ccc(OCCN5CCN(C)C(=O)[C@H]5C)cc4)CC3)nn12 [AZD5153] + Cc1c2c(nn1C)CSCc1cc(n(C)n1)CSc1cc(c3ccccc3c1)OCCCc1c(C(=O)O)n(C)c3c-2c(Cl)ccc13 [AZD5991] (first compound max 1 µM, 7x7, partner max 1 µM)	0.771

Here are 4 compounds. What values of combination Emax were reported for them?
1. C=CCn1c(=O)c2cnc(Nc3ccc(N4CCN(C)CC4)cc3)nc2n1-c1cccc(C(C)(C)O)n1 [AZD1775] + O=C(c1cc(Cc2n[nH]c(=O)c3ccccc23)ccc1F)N1CCN(C(=O)C2CC2)CC1 [Olaparib] (first compound max 1 µM, partner max 10 µM)
2. Cc1nc(Nc2ncc(C(=O)Nc3c(C)cccc3Cl)s2)cc(N2CCN(CCO)CC2)n1 [Dasatinib] + CC(=O)Nc1cccc(-n2c(=O)n(C3CC3)c(=O)c3c(Nc4ccc(I)cc4F)n(C)c(=O)c(C)c32)c1 [Trametinib] (first compound max 2 µM, 7x7, partner max 1 µM)
3. NC1(C(=O)N[C@@H](CCO)c2ccc(Cl)cc2)CCN(c2ncnc3[nH]ccc23)CC1 [Capivasertib] + CC(=O)c1c(C)c2cnc(Nc3ccc(N4CCNCC4)cn3)nc2n(C2CCCC2)c1=O [Palbociclib] (first compound max 10 µM, 7x7, partner max 10 µM)
4. CCN(CCO)CCCOc1ccc2c(Nc3cc(CC(=O)Nc4cccc(F)c4)[nH]n3)ncnc2c1 [AZD2811] + C=CCn1c(=O)c2cnc(Nc3ccc(N4CCN(C)CC4)cc3)nc2n1-c1cccc(C(C)(C)O)n1 [AZD1775] (first compound max 1 µM, partner max 1 µM)

1. 0.901
2. 0.166
3. 0.206
4. 0.864

I'm hoping you can list combination Emax for every compound here, please.
1. CN(CCO)CC[C@H](CSc1ccccc1)Nc1ccc(S(=O)(=O)NC(=O)c2ccc(N3CCC([C@@H](O)c4ccccc4-c4ccc(Cl)cc4)CC3)cc2)cc1S(=O)(=O)C(F)(F)F [AZD4320] + C1CN(CCC1(C(=O)N[C@@H](CCO)C2=CC=C(C=C2)Cl)N)C3=NC=NC4=C3C=CN4 [Capivasertib] (first compound max 1 µM, 7x7, partner max 3 µM)
2. CC1(C)CCC(CN2CCN(c3ccc(C(=O)NS(=O)(=O)c4ccc(NCC5CCOCC5)c([N+](=O)[O-])c4)c(Oc4cnc5[nH]ccc5c4)c3)CC2)=C(c2ccc(Cl)cc2)C1 [Venetoclax] + C[C@@H]1COCCN1C2=NC(=NC(=C2)C3(CC3)[S@](=N)(=O)C)C4=C5C=CNC5=NC=C4 [AZD6738] (first compound max 1 µM, 7x7, partner max 10 µM)
3. NC1(C(=O)N[C@@H](CCO)c2ccc(Cl)cc2)CCN(c2ncnc3[nH]ccc23)CC1 [Capivasertib] + CC(C)n1c(=O)n(C)c2cnc3cc(F)c(-c4ccc(OCCCN5CCCCC5)nc4)cc3c21 [AZD1390] (first compound max 10 µM, 7x7, partner max 0.3 µM)
4. Cn1cnc2c(F)c(Nc3ccc(Br)cc3Cl)c(C(=O)NOCCO)cc21 [Selumetinib] + C[C@@H]1COCCN1C2=NC(=NC(=C2)C3(CC3)[S@](=N)(=O)C)C4=C5C=CNC5=NC=C4 [AZD6738] (first compound max 10 µM, 7x7, partner max 10 µM)
5. Cc1cc2ncnn2cc1Nc1ncc2c(n1)n(C1CCOCC1)c(=O)n2C [AZD7648] + CN(C)CCCOc1ccc(-c2ccc3ncc4c(c3c2)n(C2CCOCC2)c(=O)n4C)cn1 [AZD0156] (first compound max 10 µM, 7x7, partner max 1 µM)

1: 0.134; 2: 0.672; 3: 0.253; 4: 0.684; 5: 0.221

Which combination Emax is listed for COc1nnc2ccc(N3CCC(c4ccc(OCCN5CCN(C)C(=O)[C@H]5C)cc4)CC3)nn12 [AZD5153] + Cn1cnc2c(F)c(Nc3ccc(Br)cc3Cl)c(C(=O)NOCCO)cc21 [Selumetinib] (first compound max 1 µM, 7x7, partner max 10 µM) ?
0.677
